Test system: Serum cholesterol
Experiment: Serum cholesterol analysis in ovariectomized rats (4-day oral dosing)
Format: in vivo, rat (female Sprague Dawley
Conditions: 0.1 mg/kg PO, daily for 4 days; * p < .05; negative = increase
Description: In the examples illustrating the methods, a postmenopausal model was used in which effects of different treatments upon circulating lipids were determined. […] Dosing Regimen Tissue Collection. […] The animals were then sacrificed by asphyxiation with CO2, the uterus was removed through a midline incision, and a wet uterine weight was determined. Cholesterol Analysis. […] Serum cholesterol was determined using a Boehringer Mannheim Diagnostics high performance cholesterol assay. […]
measurement.type: Serum Cholest. % Dec. (decrease versus ovariectomized controls)

// solved cases for Serum Cholest. % Dec. (decrease versus ovariectomized controls) follow
[
  {
    "compound": "CC(C)c1sc2ccccc2c1Oc1ccc(OCCN2CCCCC2)cc1.Cl",
    "endpoint.value": "-27.6%"
  },
  {
    "compound": "C#C[C@]1(O)CC[C@H]2[C@@H]3CCc4cc(O)ccc4[C@H]3CC[C@@]21C [EE2, 17α-ethynyl estradiol, reference compound]",
    "endpoint.value": "76.6%"
  },
  {
    "compound": "CCCc1sc2ccccc2c1Oc1ccc(OCCN2CCCCC2)cc1.Cl",
    "endpoint.value": "-11.1%"
  }
]

Query: Serum Cholest. % Dec. (decrease versus ovariectomized controls); subject: `Cl.c1ccc2c(Oc3ccc(OCCN4CCCCC4)cc3)c(C3CCCCC3)sc2c1` 55.8%
